// pIC50 lookup, one value per entry
biological target: Recombinant human TRKA (Homo sapiens, UniProt P04629); assay: In vitro activity test on TRKA kinase (HTRF KinEASE TK); conditions: 14.68 μM ATP, 40 min
Sequence (P04629 33-796): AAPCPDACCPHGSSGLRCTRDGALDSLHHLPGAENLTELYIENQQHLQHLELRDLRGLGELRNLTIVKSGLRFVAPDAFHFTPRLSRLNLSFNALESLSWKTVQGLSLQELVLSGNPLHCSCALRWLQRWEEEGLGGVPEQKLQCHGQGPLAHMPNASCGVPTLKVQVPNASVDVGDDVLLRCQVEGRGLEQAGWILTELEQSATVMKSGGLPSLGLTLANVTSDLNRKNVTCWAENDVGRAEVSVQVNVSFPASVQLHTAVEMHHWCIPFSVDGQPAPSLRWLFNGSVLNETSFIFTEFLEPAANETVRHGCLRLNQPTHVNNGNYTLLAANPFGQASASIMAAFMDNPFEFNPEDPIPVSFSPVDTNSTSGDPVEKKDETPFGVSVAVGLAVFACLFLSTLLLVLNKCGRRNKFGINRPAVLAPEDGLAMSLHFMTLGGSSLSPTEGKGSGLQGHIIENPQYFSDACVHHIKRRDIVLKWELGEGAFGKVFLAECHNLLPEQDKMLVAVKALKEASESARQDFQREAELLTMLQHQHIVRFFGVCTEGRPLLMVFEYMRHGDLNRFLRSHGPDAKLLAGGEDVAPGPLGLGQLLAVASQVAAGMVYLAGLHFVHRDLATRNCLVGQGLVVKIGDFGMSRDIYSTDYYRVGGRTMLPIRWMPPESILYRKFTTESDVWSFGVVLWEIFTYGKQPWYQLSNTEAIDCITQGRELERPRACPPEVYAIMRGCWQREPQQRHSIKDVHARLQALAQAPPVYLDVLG
pIC50: −log10 of the molar value.

>  <compound>
O=C1CC(n2cc(-c3ccnc4ccc(N5C[C@@H](F)C[C@@H]5c5cc(F)ccc5F)nc34)cn2)CCN1 (stereo partly drawn)

>  <targetEntity>
Recombinant human TRKA (Homo sapiens, UniProt P04629)

>  <pIC50>
> 8.00

$$$$
>  <compound>
CN(C)c1ccnc2ccc(N3CCC[C@@H]3c3cc(F)ccc3F)nc12

>  <targetEntity>
Recombinant human TRKA (Homo sapiens, UniProt P04629)

>  <pIC50>
> 8.00

$$$$
>  <compound>
Fc1ccc(F)c([C@H]2C[C@H](F)CN2c2ccc3ncnc(-c4cnn(CC5CNC5)c4)c3n2)c1

>  <targetEntity>
Recombinant human TRKA (Homo sapiens, UniProt P04629)

>  <pIC50>
> 9.00

$$$$
>  <compound>
Fc1ccc(F)c([C@H]2C[C@H](F)CN2c2ccc3ncc(Cl)c(-c4cnn([C@H]5CCNC5)c4)c3n2)c1

>  <targetEntity>
Recombinant human TRKA (Homo sapiens, UniProt P04629)

>  <pIC50>
> 9.00

$$$$
>  <compound>
NC(=O)CN1CCC(n2cc(-c3c(F)cnc4ccc(N5C[C@@H](F)C[C@@H]5c5cc(F)ccc5F)nc34)cn2)CC1

>  <targetEntity>
Recombinant human TRKA (Homo sapiens, UniProt P04629)

>  <pIC50>
> 9.00

$$$$
>  <compound>
O=C(O)[C@H]1CCN(c2ncc(-c3ncnc4ccc(N5C[C@@H](F)C[C@@H]5c5cc(F)ccc5F)nc34)cn2)C1

>  <targetEntity>
Recombinant human TRKA (Homo sapiens, UniProt P04629)

>  <pIC50>
> 9.00

$$$$
>  <compound>
COc1ncc(F)cc1[C@H]1CCCN1c1ccc2ncc(Cl)c(-c3cnn(C4CCNCC4)c3)c2n1

>  <targetEntity>
Recombinant human TRKA (Homo sapiens, UniProt P04629)

>  <pIC50>
> 9.00

$$$$
>  <compound>
Fc1ccc(F)c([C@H]2C[C@H](F)CN2c2ccc3nccc(-c4cnn(C5CCOCC5)c4)c3n2)c1

>  <targetEntity>
Recombinant human TRKA (Homo sapiens, UniProt P04629)

>  <pIC50>
> 9.00

$$$$
>  <compound>
OC1CCC(Nc2ccnc3ccc(N4CCC[C@@H]4c4cc(F)ccc4F)nc23)C1 (stereo partly drawn)

>  <targetEntity>
Recombinant human TRKA (Homo sapiens, UniProt P04629)

>  <pIC50>
> 8.00

$$$$
>  <compound>
CC1(O)CC(n2cc(-c3c(Cl)cnc4ccc(N5C[C@@H](F)C[C@@H]5c5cc(F)ccc5F)nc34)cn2)C1 (stereo partly drawn)

>  <targetEntity>
Recombinant human TRKA (Homo sapiens, UniProt P04629)

>  <pIC50>
> 9.00

$$$$

Prompt: State, for Recombinant human TRKA (Homo sapiens, UniProt P04629), measured pIC50 of the compound listed here: O[C@@H]1CN=C(Nc2ccnc3ccc(N4C[C@@H](F)C[C@@H]4c4cc(F)ccc4F)nc23)OC1
Response: > 9.00

Prompt: State, for Recombinant human TRKA (Homo sapiens, UniProt P04629), measured pIC50 of the compound listed here: Fc1ccc(F)c([C@H]2C[C@H](F)CN2c2ccc3ncc(Cl)c(-c4cnn(C5CCNCC5)n4)c3n2)c1
Response: > 9.00

Prompt: State, for Recombinant human TRKA (Homo sapiens, UniProt P04629), measured pIC50 of the compound listed here: O=C(Nc1ccnc2ccc(N3CCC[C@@H]3c3cc(F)ccc3F)nc12)c1cnc(N2CC[C@H](O)C2)nc1
Response: > 8.00

Prompt: State, for Recombinant human TRKA (Homo sapiens, UniProt P04629), measured pIC50 of the compound listed here: Fc1ccc(F)c([C@H]2C[C@H](F)CN2c2ccc3ncc(F)c(-c4cn(C5CCNCC5)nn4)c3n2)c1
Response: > 9.00

Prompt: State, for Recombinant human TRKA (Homo sapiens, UniProt P04629), measured pIC50 of the compound listed here: OC1CCN(c2nc(-c3c(F)cnc4ccc(N5C[C@@H](F)C[C@@H]5c5cc(F)ccc5F)nc34)no2)CC1
Response: > 9.00
